This collection of values is drawn from the supplement of paper PMC10065799.

// phosphorylation enrichment lookup, one value per entry
- Tested on: Fer (mouse)
- test.protocol: phosphorylation enrichment, bacterial display (enrichment ratio); higher = better substrate or ligand; peptides without Tyr show the background;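 further: 11-residue human phosphosite peptides and single-mutation variants displayed on the E. coli surface, counted by deep sequencing, each peptide's frequency after selection divided by its frequency in the unselected input library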;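 further: frequency after pTyr selection over input frequency; kinase dosed for 20-30% of maximal phosphorylation in three min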
measurement.type: phosphorylation enrichment

| sequence.data | measured |
| --- | --- |
| RKTAKYLLKGE [CDH5_Y82_N79T] | 0.878 |
| ERMKVYVPIGF [EPHX1_Y393_T396I] | 0.425 |
| LGRTRYQHVTG [MIPEP_Y510] | 0.377 |
| KNNDGYIDYAE [MCFD2_Y135] | 0.464 |
| QKKPCYEIRWK [PDGFRB_Y562_R561C] | 1.02 |
| PQAVTYATVKH [LILRB4_Y360_K362T] | 0.624 |
| VATRWYWSPEL [CDKL5_Y177_R178W] | 0.512 |
| YQLENYCNGGG [INS_Y108] | 0.55 |
| SIYKDYYRYNF [PLA2G2D_Y85] | 1.32 |
| AKFPFYEKNKK [FOXL2_Y91] | 0.304 |
| SRDPFYEMLAA [CYTH1_Y382] | 12.4 |
| FQLENYCNGGG [INS_Y108_YF] | 0.364 |
| VCDSDYSASRW [LRP5_Y1552] | 0.455 |
| IGVGSYSVCKR [RPS6KA3_Y433] | 0.385 |
| QKPLDYYRVNL [GALE_Y104] | 0.81 |
| LFDPDFMKVIL [CYP4A22_Y104_Y104F_YF] | 0.999 |
| LTERGYSFTTT [ACTB_Y198] | 0.554 |
| KGLKVYVNGTL [ADGRD1_Y183_E178K] | 0.452 |
| SWSTSYSGFRC [NKAPL_Y91_Y96C_YF] | 0.531 |
| ISDDKYGRIRL [ARCN1_Y310] | 0.312 |
| MNPPPYSQFLS [FGF23_Y154] | 0.711 |
| SVTCTSSPALN [TP53_Y126_Y126S] | 0.538 |
| SSDPDYRAAVD [GLB1_Y154_L155R] | 0.507 |
| TDTAAYEERVR [SPTB_Y474] | 0.407 |
| NIWDSYTTNKV [GNB1_Y85_I80N] | 0.414 |
| LESILYESSVV [TRPV4_Y91_T89I] | 7.52 |
| VVIMLYGVDSR [PKD1_Y3143_G3139V] | 0.682 |

###

// phosphorylation enrichment lookup, one value per entry
- measured.on: Hck (UniProt P08631)
- Sequence (P08631 whole entry, looked up): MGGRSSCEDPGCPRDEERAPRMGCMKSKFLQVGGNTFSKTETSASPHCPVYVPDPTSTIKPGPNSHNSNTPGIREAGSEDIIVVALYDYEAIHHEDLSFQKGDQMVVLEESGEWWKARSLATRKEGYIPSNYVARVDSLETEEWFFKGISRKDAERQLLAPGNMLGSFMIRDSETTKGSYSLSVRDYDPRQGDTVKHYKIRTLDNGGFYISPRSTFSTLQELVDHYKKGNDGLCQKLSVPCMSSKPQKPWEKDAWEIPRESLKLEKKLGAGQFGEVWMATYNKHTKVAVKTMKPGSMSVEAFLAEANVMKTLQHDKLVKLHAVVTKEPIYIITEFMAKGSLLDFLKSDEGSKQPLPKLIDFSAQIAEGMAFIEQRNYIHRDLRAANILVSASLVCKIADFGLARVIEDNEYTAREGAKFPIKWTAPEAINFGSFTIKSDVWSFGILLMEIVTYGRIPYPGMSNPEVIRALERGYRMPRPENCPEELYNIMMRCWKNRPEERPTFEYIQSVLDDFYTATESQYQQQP
- test.protocol: phosphorylation enrichment, bacterial display (enrichment ratio); higher = better substrate or ligand; peptides without Tyr show the background

| sequence.data | measured.on | phosphorylation enrichment |
| --- | --- | --- |
| LLEGKYEWQEV [CDKN1B_Y74_P69L] | Hck (UniProt P08631) | 0.889 |
| VVEYGYEFFAK [PPP1CB_Y254_D252Y] | Hck (UniProt P08631) | 0.72 |
| LESILYESSVV [TRPV4_Y91_T89I] | Hck (UniProt P08631) | 1.65 |
| QTSTDYDIRFF [CSNK2A1_Y131_L128S_YF] | Hck (UniProt P08631) | 0.968 |
| LHRAHYDLHHT [AHSG_Y314_R317H] | Hck (UniProt P08631) | 0.553 |
| NKYTTYLPRLP [C9orf24_Y126] | Hck (UniProt P08631) | 0.714 |
| RQQEVYLLFKQ [RARRES1_Y159_D158V_YF] | Hck (UniProt P08631) | 0.66 |
| RRNVFYFSFLL [PTEN_Y177_Y174N_YF] | Hck (UniProt P08631) | 0.923 |
| EDASEYYENYI [PARP4_Y214_F215Y] | Hck (UniProt P08631) | 0.666 |
| DSSIRYLQEIY [FGG_Y135] | Hck (UniProt P08631) | 0.948 |
| CTTIHYNYRCN [TP53_Y234_M237R] | Hck (UniProt P08631) | 0.497 |
| QYNMQYSSSAA [ERBB2IP_Y981_I979M] | Hck (UniProt P08631) | 0.732 |
| LENSTYQYICV [CRB1_Y760_R764C] | Hck (UniProt P08631) | 5.89 |
| KDHPDYKYQRR [SOX10_Y171_P175R] | Hck (UniProt P08631) | 0.367 |
| ITNLLYHLVGW [GBA_Y412_V414L] | Hck (UniProt P08631) | 4.8 |
| LHAAAYQNALA [UQCRC2_Y182_R183Q] | Hck (UniProt P08631) | 0.45 |
| LDTFIYDAAVL [GRIN2A_Y730_A727T] | Hck (UniProt P08631) | 8.1 |
| SVDRDYVLKSA [HTATIP2_Y111_R106S] | Hck (UniProt P08631) | 0.399 |
| PVKSEYSSIKL [NPC2_Y119_P120S] | Hck (UniProt P08631) | 1.11 |
| PDGHEYIFVDP [PDGFRA_Y572_YF] | Hck (UniProt P08631) | 0.54 |
| PKDSAYVTWEP | Hck (UniProt P08631) | 2.38 |
| QELRRYLKSGI [MICA_Y194_V199I] | Hck (UniProt P08631) | 0.496 |
| DDLEVYLKHLL [SACS_Y3477] | Hck (UniProt P08631) | 0.58 |
| TVSRPYSFIEF [SEC22B_Y110] | Hck (UniProt P08631) | 0.705 |
| DGMADCSDPSY [CDC5L_Y459_Y459C] | Hck (UniProt P08631) | 0.543 |
| KFDLMYAKHAF [TUBA1A_Y399_R402H] | Hck (UniProt P08631) | 0.438 |
| EKKKYYDTKIE [CASP5_Y104] | Hck (UniProt P08631) | 0.511 |
| KKKKQYKGKYL [CASK_Y708_D710G] | Hck (UniProt P08631) | 0.513 |
| PDMHSYVVRYN [GRIN2D_Y732_M733V] | Hck (UniProt P08631) | 0.721 |
